# Tested on: 885724-159-R-J1-PDC KRAS PDC multicell spheroid viability
# test_name: Anticancer human tumor 885724-159-R-J1-PDC patient-derived pancreatic adenocarcinoma cell line growth inhibition [KRAS2]
# test_parameters: second compound 0.316 µM; first compound 0.1 µM; active compounds read low
Could you mark each record Y if its viability, T/C falls strictly under 80%, and N if it equals or exceeds it?

Please let me know if COc1cc2nccc(Oc3ccc(NC(=O)C4(C(=O)Nc5ccc(F)cc5)CC4)cc3)c2cc1OC + COc1cc2nc(C)nc(NC(C)c3cc(N)cc(C(F)(F)F)c3)c2cc1OC1CCOC1 shows viability, T/C below 80%.
N

Hello, I'm reviewing records and need to know if viability, T/C of CC1OCC2(CCN(c3cnc(Sc4ccnc(N)c4Cl)c(N)n3)CC2)C1N (stereo unspecified) + COc1cc2nc(C)nc(NC(C)c3cc(N)cc(C(F)(F)F)c3)c2cc1OC1CCOC1 is below 80%. Could you check?
N

# strict comparison: is reported viability, T/C < 80%? input = CC(C)NCC(C(=O)N1CCN(c2ncnc3c2C(C)CC3O)CC1)c1ccc(Cl)cc1 (stereo unspecified) + CNCc1ccccc1-c1csc(C(C)Nc2nc(C)nc3cc(OC)c(OC)cc23)c1
Y

Is viability, T/C strictly under 80% for the entry CN(C)C/C=C/C(=O)Nc1cc2c(Nc3ccc(F)c(Cl)c3)ncnc2cc1O[C@H]1CCOC1 + CC1OCC2(CCN(c3cnc(Sc4ccnc(N)c4Cl)c(N)n3)CC2)C1N ?
Y

I wonder whether COc1cc(Nc2ncc3c(n2)-c2ccc(Cl)cc2C(c2c(F)cccc2OC)=NC3)ccc1C(=O)O + C=CC(=O)N1CCN(c2nc(=O)n(-c3c(C)ccnc3C(C)C)c3nc(-c4c(O)cccc4F)c(F)cc23)C(C)C1 has viability, T/C below 80%. Can you tell?
N

----------
# Tested on: 885724-159-R-J1-PDC KRAS PDC multicell spheroid viability
# test_name: Anticancer human tumor 885724-159-R-J1-PDC cell line growth inhibition [KRAS2];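 note: spheroids exposed to agents for 7 days before readout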
# test_parameters: second compound 0.316 µM; first compound 0.01 µM; active compounds read low
Exercise: state measured viability, T/C for each of the compounds provided.
Could you give me the number in %? Just the number is fine.

Need viability, T/C of CN(C)C/C=C/C(=O)Nc1cc2c(Nc3ccc(F)c(Cl)c3)ncnc2cc1O[C@H]1CCOC1 + CNCc1ccccc1-c1csc(C(C)Nc2nc(C)nc3cc(OC)c(OC)cc23)c1 , thanks.
81.7

Find the recorded viability, T/C belonging to CC(=O)Nc1cccc(-n2c(=O)n(C3CC3)c(=O)c3c(Nc4ccc(I)cc4F)n(C)c(=O)c(C)c32)c1 + COc1cc2nc(C)nc(NC(C)c3cc(N)cc(C(F)(F)F)c3)c2cc1OC1CCOC1 and report it.
24.9

viability, T/C for CC(=O)Nc1cccc(-n2c(=O)n(C3CC3)c(=O)c3c(Nc4ccc(I)cc4F)n(C)c(=O)c(C)c32)c1 + CC1OCC2(CCN(c3cnc(Sc4ccnc(N)c4Cl)c(N)n3)CC2)C1N ?
23.2

Record request: viability, T/C value, item CN(C)C/C=C/C(=O)Nc1cc2c(Nc3ccc(F)c(Cl)c3)ncnc2cc1O[C@H]1CCOC1 + CC1OCC2(CCN(c3cnc(Sc4ccnc(N)c4Cl)c(N)n3)CC2)C1N
81.3

I would be grateful if you could share the reported viability, T/C for CC(C)n1nc(-c2ccc3oc(N)nc3c2)c2c(N)ncnc21 + C=CC(=O)N1CCN(c2nc(=O)n(-c3c(C)ccnc3C(C)C)c3nc(-c4c(O)cccc4F)c(F)cc23)C(C)C1 .
63.9

I'd like to know its viability, T/C. The compound in question is CCN1CCN(Cc2ccc(Nc3ncc(F)c(-c4cc(F)c5nc(C)n(C(C)C)c5c4)n3)nc2)CC1 + C=CC(=O)N1CCN(c2nc(=O)n(-c3c(C)ccnc3C(C)C)c3nc(-c4c(O)cccc4F)c(F)cc23)C(C)C1
104

Query (compound): CC(C)n1nc(-c2ccc3oc(N)nc3c2)c2c(N)ncnc21 + CNCc1ccccc1-c1csc(C(C)Nc2nc(C)nc3cc(OC)c(OC)cc23)c1 ; field requested: viability, T/C
60.6

What does the data say about its viability, T/C? Entry: CC1COCCN1c1cc(-c2ccnn2C)c2ccnc(-c3ccn[nH]3)c2n1 (stereo not given) + CC1OCC2(CCN(c3cnc(Sc4ccnc(N)c4Cl)c(N)n3)CC2)C1N
81

Would you kindly share the measured viability, T/C for CC(=O)OC12COC1CC(O)C1(C)C(=O)C(O)C3=C(C)C(OC(=O)C(O)C(NC(=O)OC(C)(C)C)c4ccccc4)CC(O)(C(OC(=O)c4ccccc4)C21)C3(C)C (stereo not given) + CC1OCC2(CCN(c3cnc(Sc4ccnc(N)c4Cl)c(N)n3)CC2)C1N ?
99.7

Suppose we examine the compound CC(=O)Nc1cccc(-n2c(=O)n(C3CC3)c(=O)c3c(Nc4ccc(I)cc4F)n(C)c(=O)c(C)c32)c1 + C=CC(=O)N1CCN(c2nc(=O)n(-c3c(C)ccnc3C(C)C)c3nc(-c4c(O)cccc4F)c(F)cc23)C(C)C1 ; what viability, T/C value has been reported?
30.6

Requested field: viability, T/C. Item: Cn1ncnc1[C@H]1c2n[nH]c(=O)c3cc(F)cc(c23)N[C@@H]1c1ccc(F)cc1 + C=CC(=O)N1CCN(c2nc(=O)n(-c3c(C)ccnc3C(C)C)c3nc(-c4c(O)cccc4F)c(F)cc23)C(C)C1
113

Entry CC1COCCN1c1cc(-c2ccnn2C)c2ccnc(-c3ccn[nH]3)c2n1 (stereo not given) + C=CC(=O)N1CCN(c2nc(=O)n(-c3c(C)ccnc3C(C)C)c3nc(-c4c(O)cccc4F)c(F)cc23)C(C)C1 has what viability, T/C?
104

Look at this compound and give its reported viability, T/C. CC1COCCN1c1cc(-c2ccnn2C)c2ccnc(-c3ccn[nH]3)c2n1 (stereo not given) + CNCc1ccccc1-c1csc(C(C)Nc2nc(C)nc3cc(OC)c(OC)cc23)c1
108

So what's the measured viability, T/C for this one? CCN1CCN(Cc2ccc(Nc3ncc(F)c(-c4cc(F)c5nc(C)n(C(C)C)c5c4)n3)nc2)CC1 + CNCc1ccccc1-c1csc(C(C)Nc2nc(C)nc3cc(OC)c(OC)cc23)c1
94.8

Which viability, T/C reading was recorded for the compound CC(=O)Nc1cccc(-n2c(=O)n(C3CC3)c(=O)c3c(Nc4ccc(I)cc4F)n(C)c(=O)c(C)c32)c1 + CNCc1ccccc1-c1csc(C(C)Nc2nc(C)nc3cc(OC)c(OC)cc23)c1 ?
20.5

Given CC1COCCN1c1cc(-c2ccnn2C)c2ccnc(-c3ccn[nH]3)c2n1 (stereo not given) + COc1cc2nc(C)nc(NC(C)c3cc(N)cc(C(F)(F)F)c3)c2cc1OC1CCOC1 , state its recorded viability, T/C.
101

# viability, T/C lookup, item Cn1ncnc1[C@H]1c2n[nH]c(=O)c3cc(F)cc(c23)N[C@@H]1c1ccc(F)cc1 + CC1OCC2(CCN(c3cnc(Sc4ccnc(N)c4Cl)c(N)n3)CC2)C1N
79.1

Need viability, T/C, item CN(C)C/C=C/C(=O)Nc1cc2c(Nc3ccc(F)c(Cl)c3)ncnc2cc1O[C@H]1CCOC1 + C=CC(=O)N1CCN(c2nc(OCC3CCCN3C)nc3c2CCN(c2cccc4cccc(C)c24)C3)CC1CC#N
84.1

Recorded viability, T/C for CC(=O)OC12COC1CC(O)C1(C)C(=O)C(O)C3=C(C)C(OC(=O)C(O)C(NC(=O)OC(C)(C)C)c4ccccc4)CC(O)(C(OC(=O)c4ccccc4)C21)C3(C)C (stereo not given) + C=CC(=O)N1CCN(c2nc(=O)n(-c3c(C)ccnc3C(C)C)c3nc(-c4c(O)cccc4F)c(F)cc23)C(C)C1 , please?
94.6

Value lookup for viability, T/C; key = Cn1ncnc1[C@H]1c2n[nH]c(=O)c3cc(F)cc(c23)N[C@@H]1c1ccc(F)cc1 + C=CC(=O)N1CCN(c2nc(OCC3CCCN3C)nc3c2CCN(c2cccc4cccc(C)c24)C3)CC1CC#N
102

----------
# System: 885724-159-R-J1-PDC KRAS PDC multicell spheroid viability
# test_name: Anticancer human tumor 885724-159-R-J1-PDC cell line growth inhibition [KRAS2];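 note: spheroids exposed to agents for 7 days before readout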
# test_parameters: second compound 3.16 µM; first compound 0.00316 µM; active compounds read low
Labelling: viability, T/C reported below 20% becomes t; at or above becomes f.

Here's an entry: CCN1CCN(Cc2ccc(Nc3ncc(F)c(-c4cc(F)c5nc(C)n(C(C)C)c5c4)n3)nc2)CC1 + COc1cc2nc(C)nc(NC(C)c3cc(N)cc(C(F)(F)F)c3)c2cc1OC1CCOC1 . Is its viability, T/C below 20%?
f

Problem: For the molecule CC(C)n1nc(-c2ccc3oc(N)nc3c2)c2c(N)ncnc21 + COc1cc2nc(C)nc(NC(C)c3cc(N)cc(C(F)(F)F)c3)c2cc1OC1CCOC1 , is viability, T/C under 20%?
f

Hello, I'm reviewing records and need to know if viability, T/C of CC(C)n1nc(-c2ccc3oc(N)nc3c2)c2c(N)ncnc21 + CC1OCC2(CCN(c3cnc(Sc4ccnc(N)c4Cl)c(N)n3)CC2)C1N is below 20%. Could you check?
f

Dear reviewer, please state whether CN(C)C/C=C/C(=O)Nc1cc2c(Nc3ccc(F)c(Cl)c3)ncnc2cc1O[C@H]1CCOC1 + CNCc1ccccc1-c1csc(C(C)Nc2nc(C)nc3cc(OC)c(OC)cc23)c1 has viability, T/C strictly beneath 20%.
t

viability, T/C strictly < 20% for this molecule? CC(=O)Nc1cccc(-n2c(=O)n(C3CC3)c(=O)c3c(Nc4ccc(I)cc4F)n(C)c(=O)c(C)c32)c1 + C=CC(=O)N1CCN(c2nc(OCC3CCCN3C)nc3c2CCN(c2cccc4cccc(C)c24)C3)CC1CC#N
t

Hi there! Is viability, T/C for CCN1CCN(Cc2ccc(Nc3ncc(F)c(-c4cc(F)c5nc(C)n(C(C)C)c5c4)n3)nc2)CC1 + C=CC(=O)N1CCN(c2nc(=O)n(-c3c(C)ccnc3C(C)C)c3nc(-c4c(O)cccc4F)c(F)cc23)C(C)C1 below 20%, do you know?
f
